Some binders, each annotated with its measured Ca ion level-increasing activity (FLIPR).
# Experimental Target: human OT7T175 (metastin receptor) (human, UniProt Q969F8 1-398)
# Sequence (Q969F8 whole entry L364H): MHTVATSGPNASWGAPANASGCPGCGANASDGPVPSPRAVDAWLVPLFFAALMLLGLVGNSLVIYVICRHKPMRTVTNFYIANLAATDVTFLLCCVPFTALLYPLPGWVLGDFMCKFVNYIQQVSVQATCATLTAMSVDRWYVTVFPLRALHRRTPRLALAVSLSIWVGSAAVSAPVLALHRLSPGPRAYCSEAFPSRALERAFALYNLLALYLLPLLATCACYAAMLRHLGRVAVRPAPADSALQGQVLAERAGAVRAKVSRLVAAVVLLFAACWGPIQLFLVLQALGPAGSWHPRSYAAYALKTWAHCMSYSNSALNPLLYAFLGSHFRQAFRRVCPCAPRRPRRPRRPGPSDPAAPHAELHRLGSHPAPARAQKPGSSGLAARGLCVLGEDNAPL
# Experiment Summary: cell-based or functional assay
Non-standard residues stand in square brackets, D forms with d. No end group written: not given here. *: point of attachment. Propanoyl(3-indol-3-yl) = O=C(CCc1c[nH]c2ccccc12)*; Arg(Me) = CNC(=N)NCCC[C@H](N)C(=O)O; azaGly = NNC(=O)O

- Binder: "{Propanoyl(3-indol-3-yl)}-F[azaGly]L[Arg(Me)]F-NH2 (SMILES CNC(=N)NCCC[C@H](NC(=O)[C@H](CC(C)C)NC(=O)NNC(=O)[C@H](Cc1ccccc1)NC(=O)CCc1c[nH]c2ccccc12)C(=O)N[C@@H](Cc1ccccc1)C(N)=O) [des(1-5)-3-(3-Indolyl)propionyl-[AzaGly7,Arg(Me)9]MS10]"
  Ca ion level-increasing activity (FLIPR): "2 x Metastin (1-54)"
- Binder: "[dY][dH]WNSF[azaGly]L[Arg(Me)]F-NH2 (N-terminus assumed; SMILES CNC(=N)NCCC[C@H](NC(=O)[C@H](CC(C)C)NC(=O)NNC(=O)[C@H](Cc1ccccc1)NC(=O)[C@H](CO)NC(=O)[C@H](CC(N)=O)NC(=O)[C@H](Cc1c[nH]c2ccccc12)NC(=O)[C@@H](Cc1c[nH]cn1)NC(=O)[C@H](N)Cc1ccc(O)cc1)C(=O)N[C@@H](Cc1ccccc1)C(N)=O, also called Compound No. 288) [[D-Tyr1,D-His2,AzaGly7,Arg(Me)9]MS10]"
  Ca ion level-increasing activity (FLIPR): "1 x Metastin (1-54)"
